Values compiled from PubChem BioAssay AID1963865.

Test system: KRAS PDC multicell spheroid viability;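 further: spheroids exposed to compounds for 7 days; 100% = DMSO vehicle control viability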
assay_protocol: Anticancer human tumor 825966-067-R-J1-PDC patient-derived colon carcinoma cell line growth inhibition [KRAS2]; active means viability on the fitted dose curve at most 10% of control; inactive means the rest
measurement_setup: second compound 10 µM; first compound 10 µM
Respond using exactly one of the listed classes: true (1) for active, false (0) for inactive

Example cases with answers are listed next.
{"columns": ["compound", "label_class"],
 "data": [
  ["COc1cc(Nc2ncc3c(n2)-c2ccc(Cl)cc2C(c2c(F)cccc2OC)=NC3)ccc1C(=O)O + C=CC(=O)N1CCN(c2nc(=O)n(-c3c(C)ccnc3C(C)C)c3nc(-c4c(O)cccc4F)c(F)cc23)C(C)C1", "false (0)"],
  ["COc1cc(Nc2ncc3c(n2)-c2ccc(Cl)cc2C(c2c(F)cccc2OC)=NC3)ccc1C(=O)O + CC1OCC2(CCN(c3cnc(Sc4ccnc(N)c4Cl)c(N)n3)CC2)C1N", "false (0)"],
  ["COc1cc2nccc(Oc3ccc(NC(=O)C4(C(=O)Nc5ccc(F)cc5)CC4)cc3)c2cc1OC + COc1cc2nc(C)nc(NC(C)c3cc(N)cc(C(F)(F)F)c3)c2cc1OC1CCOC1", "true (1)"],
  ["Cn1nccc1Nc1nccc(-c2cc3c(s2)C(C)(C)N(CCN2CCOCC2)C3=O)n1 + CC1OCC2(CCN(c3cnc(Sc4ccnc(N)c4Cl)c(N)n3)CC2)C1N", "false (0)"],
  ["CC1OCC2(CCN(c3cnc(Sc4ccnc(N)c4Cl)c(N)n3)CC2)C1N (stereo unspecified) + COc1cc2nc(C)nc(NC(C)c3cc(N)cc(C(F)(F)F)c3)c2cc1OC1CCOC1", "true (1)"]
]}

State the result this test recorded for COc1cc2nccc(Oc3ccc(NC(=O)C4(C(=O)Nc5ccc(F)cc5)CC4)cc3)c2cc1OC + C=CC(=O)N1CCN(c2nc(=O)n(-c3c(C)ccnc3C(C)C)c3nc(-c4c(O)cccc4F)c(F)cc23)C(C)C1 .
true (1)
